// provenance: patent US20170267750A1

Biological target: T1, TIM-1 antigen, soluble extracellular domain of TIM-1 (CG57008-02) with a V5-HIS tag (human, UniProt Q96D42 21-288)
T1 construct: also called TIM-1 immunogen; TIM-1 protein
T1 sequence: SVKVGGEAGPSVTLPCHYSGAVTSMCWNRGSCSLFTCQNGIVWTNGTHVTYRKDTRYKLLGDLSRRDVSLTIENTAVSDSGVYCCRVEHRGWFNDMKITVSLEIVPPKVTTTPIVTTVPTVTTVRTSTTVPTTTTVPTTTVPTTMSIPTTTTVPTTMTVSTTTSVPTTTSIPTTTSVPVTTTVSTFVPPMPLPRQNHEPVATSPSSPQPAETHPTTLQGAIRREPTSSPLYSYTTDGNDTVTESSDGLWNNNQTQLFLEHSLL
Assay: BIAcore 2000, 25 C, mAb captured on goat anti-human surface, TIM-1 antigen injected at 292 nM
Consider the cut-off 3 nM. If the recorded Kd is strictly smaller, the label is YES; if not, the label is NO.

Query block: Decide: Kd of anti-TIM-1 monoclonal antibody 1.37 (antibody, V domains shown) VH: EVQLVESGGGLVQPGGSLRLSCAASGFTFTNYWMSWVRQAPGKGLEWVANIQQDGSEKYYVDSVRGRFTISRDNAKNSLYLQMNSLRAEDSAVYYCARWDYWGQGTLVTVSS VL: DIVMTQTPLSSTVILGQPASISCRSSQSLVHSDGNTYLNWLQQRPGQPPRLLIYMISNRFSGVPDRFSGSGAGTDFTLKISRVEAEDVGVYYCMQATESPQTFGQGTKVEIKR strictly below 3 nM?
Result block: YES

Query block: Decide: Kd of anti-TIM-1 monoclonal antibody 1.29 (antibody, V domains shown, also called mAb 1.29) VH: QVQLQESGPGLVKPSETLSLTCTVSGGSVSSGGYYWSWIRQPPGKGLEWIGFIYYTGSTNYNPSLKSRVSISVDTSKNQFSLKLSSVTAADAAVYYCARDYDWSFHFDYWGQGTLVTVSS VL: DIQMTQSPSSLSASIGDRVTITCRASQGIRNDLGWYQQKPGKAPKRLIYAASSLQSGVPSRFSGSGSGTEFTLTISSLQPEDFATYYCLQHNSYPLTFGGGTKVEIKR strictly below 3 nM?
Result block: NO

Query block: Decide: Kd of anti-TIM-1 monoclonal antibody 2.61 (antibody, V domains shown) VH: QVQLVEAGGGVVQPGRSLRLSCAASGFTFRSYGMHWVRQAPGKGLKWVAVIWYDGSNKYYTDSVKGRFTISRDNSKNTLYLQMNSLRAEDTAVYYCVRDYYDNSRHHWGFDYWGQGTLVTVSS VL: DIQMTQSPSSRCASVGDRVTITCRASQGIRNDLAWYQQKPGKAPKRLIYAASSLQSGVPSRFSGSRSGTEFTLTISSLQPEDFAAYYCLQHNSYPPSFGQGTKLEIKR strictly below 3 nM?
Result block: YES
